From: PubChem BioAssay (NCI)

Form field: growth (one value per entry).
# Tested on: HOP-92 NSCLC
# measurement-description: NCI-60 one-dose screen, 48 h (100 = growth as untreated, 0 = no growth, -100 = all killed)
# study-conditions: 10 µM unless noted
The panel holds about 83,000 compounds, 20% with a hit somewhere; the sample as a whole holds those more often.
measured-property: growth (%)

{"molecule": "CN1CCN(Cc2ccc(C(=O)Nc3cncc(C#Cc4cnc5cccnn45)c3)cc2C(F)(F)F)CC1", "measured-property": "growth", "numeric-result": 34.4}
{"molecule": "O=C(NC1C(O)OC(CO)C(O)C1O)NS(=O)(=O)c1ccc(Cl)cc1 (stereo unspecified)", "measured-property": "growth", "numeric-result": 101}
{"molecule": "O=C(Nc1ccccc1O)c1ccc(-c2ccc(Cl)cc2Cl)o1", "measured-property": "growth", "numeric-result": 80.4}
{"molecule": "COc1ccc(C2C3=C(COC3=O)N(CCO)c3cc4c(cc32)CCC4)cc1 (stereo unspecified)", "measured-property": "growth", "numeric-result": 70.8}
{"molecule": "CCOc1ccccc1CN1CCc2nc3cc(C(C)(C)C)[nH]n3c(=O)c2C1", "measured-property": "growth", "numeric-result": 112}
{"molecule": "COC(=O)c1ccc(NC(=O)CSc2nc3ccccc3c(=O)n2-c2ccccc2)cc1", "measured-property": "growth", "numeric-result": 79.7}
{"molecule": "NC(CCl)=NCCC[C@H](N)C(=O)O", "measured-property": "growth", "numeric-result": 98.3}
{"molecule": "COc1ccccc1N1C(=N)S/C(=C\\c2ccc(OCc3ccccc3F)cc2)C1=O", "measured-property": "growth", "numeric-result": 81.1}
{"molecule": "COc1ccc(OC)c(/C=C/C(=O)c2c(C)nc3ccccc3c2/C=C/c2ccccc2)c1", "measured-property": "growth", "numeric-result": 48.5}
{"molecule": "O=[N+]([O-])c1cc2c(ccc3occc32)o1", "measured-property": "growth", "numeric-result": 26.6}
{"molecule": "O=C(Nc1ccc(N2CCNCC2)cn1)c1[nH]ncc1Nc1ncnc2sccc12", "measured-property": "growth", "numeric-result": 52.5}

----------
# System: SK-OV-3 ovarian
# measurement-description: NCI-60 one-dose screen, 48 h (100 = growth as untreated, 0 = no growth, -100 = all killed)
# study-conditions: 10 µM unless noted
The panel holds about 83,000 compounds, 20% with a hit somewhere; the sample as a whole holds those more often.
Decide using growth: a value greater than or equal to 90% is Met, a smaller one is Not met.

{"compound": "COc1cc(C(C)n2cc(-c3ccccc3)nn2)ccc1OC1CCCC1 (stereo not given)", "category": "Not met"}
{"compound": "CCOC(=O)C1=C(C)N=c2s/c(=C\\c3cc(Cl)ccc3O)c(=O)n2C1c1ccc(OC)cc1 (stereo not given)", "category": "Met"}
{"compound": "O=C1c2cc(I)ccc2Oc2cc([N+](=O)[O-])ccc2N1c1ccc(Cl)cc1F", "category": "Met"}
{"compound": "CN(C)CCCNCc1ccc(-c2ccc(F)c(Cl)c2)o1", "category": "Not met"}

----------
# Tested on: MDA-MB-435 melanoma
# measurement-description: NCI-60 one-dose screen, 48 h (100 = growth as untreated, 0 = no growth, -100 = all killed)
# study-conditions: 10 µM unless noted
This is part of a sample that, as a whole, favours compounds with a hit. Of some 83,000 tested, about 20% had one in any assay.

{"compound": "CCOc1cccc(/C=N\\Nc2nc(=O)cc(C(=O)OC)s2)c1O", "unit-text": "%", "growth": 91.6}
{"compound": "O=C(Nc1ccc(Br)cc1F)c1cc(I)ccc1O", "unit-text": "%", "growth": 4.78}
{"compound": "O=C(CSc1ccc2nnc(-c3cccc(F)c3)n2n1)Nc1ccc2c(c1)OCO2", "unit-text": "%", "growth": 89.5}
{"compound": "CC(=Nc1ccccc1)C1=C(O)C(Cc2ccc(F)cc2)NC1=O (stereo not drawn)", "unit-text": "%", "growth": -53.7}
{"compound": "CNCCNc1nc2ccccc2c2c(=O)c3cccc(C)c3sc12", "unit-text": "%", "growth": 6.07}
{"compound": "COc1ccc(CCN2C(=O)CCSC2=S)cc1OC", "unit-text": "%", "growth": 96.2}
{"compound": "COc1cc(C(C)n2cc(-c3ccccc3)nn2)ccc1OC1CCCC1 (stereo not drawn)", "unit-text": "%", "growth": 65.4}
{"compound": "Cc1cccc2c(=O)c3c(sc12)c(NCCN)nc1ccccc13", "unit-text": "%", "growth": -93.9}
